Each item that follows carries a reported koff.
Biological target: T1, soluble cynomolgus GPNMB (recombinant extracellular domain) (cynomolgus, UniProt Q14956 23-499 (human entry), limits assumed)
T1 chain: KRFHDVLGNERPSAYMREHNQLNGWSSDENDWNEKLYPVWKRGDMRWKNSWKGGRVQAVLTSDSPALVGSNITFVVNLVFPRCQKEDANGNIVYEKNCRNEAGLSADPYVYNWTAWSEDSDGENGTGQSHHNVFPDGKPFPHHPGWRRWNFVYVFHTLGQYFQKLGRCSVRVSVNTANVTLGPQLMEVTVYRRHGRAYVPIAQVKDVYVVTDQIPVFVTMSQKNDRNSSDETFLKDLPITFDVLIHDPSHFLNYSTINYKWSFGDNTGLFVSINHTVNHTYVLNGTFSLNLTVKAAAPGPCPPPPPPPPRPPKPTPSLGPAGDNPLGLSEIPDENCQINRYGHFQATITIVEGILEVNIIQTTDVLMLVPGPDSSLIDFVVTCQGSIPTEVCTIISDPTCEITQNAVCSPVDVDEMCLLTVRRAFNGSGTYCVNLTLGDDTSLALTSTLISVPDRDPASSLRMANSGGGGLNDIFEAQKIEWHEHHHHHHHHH
Test: SPR Biacore, IgG captured
Unit s⁻¹ implied. Number only.

- binder: "anti-GPNMB antibody GPN-89 (antibody, V domains shown) VH: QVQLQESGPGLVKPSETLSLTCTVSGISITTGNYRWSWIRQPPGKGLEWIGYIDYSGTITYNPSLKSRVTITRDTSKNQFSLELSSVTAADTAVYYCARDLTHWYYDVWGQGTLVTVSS VL: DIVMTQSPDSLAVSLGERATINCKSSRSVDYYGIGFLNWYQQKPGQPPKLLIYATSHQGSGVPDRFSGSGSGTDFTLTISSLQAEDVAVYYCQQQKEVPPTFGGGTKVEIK"
  koff, s⁻¹: 0.00055
- binder: "anti-GPNMB antibody GPN-82 (antibody, V domains shown) VH: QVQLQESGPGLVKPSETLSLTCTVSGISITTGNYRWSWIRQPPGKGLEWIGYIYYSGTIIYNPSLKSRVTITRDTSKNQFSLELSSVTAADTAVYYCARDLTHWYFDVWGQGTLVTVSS VL: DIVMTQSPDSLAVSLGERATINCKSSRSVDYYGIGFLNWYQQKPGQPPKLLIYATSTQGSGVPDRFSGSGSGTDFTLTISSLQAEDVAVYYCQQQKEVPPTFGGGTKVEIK"
  koff, s⁻¹: 0.0022
- binder: "anti-GPNMB antibody GPN-93 (antibody, V domains shown) VH: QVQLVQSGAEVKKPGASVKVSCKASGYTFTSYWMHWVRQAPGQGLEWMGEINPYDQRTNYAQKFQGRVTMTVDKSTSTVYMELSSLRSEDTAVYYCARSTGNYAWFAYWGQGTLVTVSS VL: DIVMTQSPDSLAVSLGERATINCKTSQDVSPSLAWYQQKPGQPPKLLIYSASKRYTGVPDRFSGSGSGTDFTLTISSLQAEDVAVYYCQQHYSIPLQFGGGTKVEIK"
  koff, s⁻¹: 0.00071
- binder: "anti-GPNMB antibody GPN-83 (antibody, V domains shown) VH: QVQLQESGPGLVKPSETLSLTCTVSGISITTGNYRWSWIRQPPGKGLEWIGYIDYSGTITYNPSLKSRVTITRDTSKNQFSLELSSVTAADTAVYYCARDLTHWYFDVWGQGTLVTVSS VL: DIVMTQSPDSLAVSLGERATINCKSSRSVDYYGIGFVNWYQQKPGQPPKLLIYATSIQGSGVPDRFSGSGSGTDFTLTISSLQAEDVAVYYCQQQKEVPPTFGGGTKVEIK"
  koff, s⁻¹: 0.0014

Here's the next entry for you.
Ask: Name the reported koff value associated with the binder anti-GPNMB antibody GPN-97 (antibody, V domains shown) VH: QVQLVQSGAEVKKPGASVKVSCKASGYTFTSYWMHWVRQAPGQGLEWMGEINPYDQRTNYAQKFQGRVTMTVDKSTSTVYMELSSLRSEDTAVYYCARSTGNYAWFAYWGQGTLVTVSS VL: DIVMTQSPDSLAVSLGERATINCKTSQDVSPSLAWYQQKPGQPPKLLIYSGSYRYTGVPDRFSGSGSGTDFTLTISSLQAEDVAVYYCQQHYSIPLTFGGGTKVEIK
Result: 0.00065
